TARGET DESC: ZAC^E89A (Homo sapiens, UniProt Q401N2, A152T/E113A)
Sequence (Q401N2 26-412 E113A/A152T): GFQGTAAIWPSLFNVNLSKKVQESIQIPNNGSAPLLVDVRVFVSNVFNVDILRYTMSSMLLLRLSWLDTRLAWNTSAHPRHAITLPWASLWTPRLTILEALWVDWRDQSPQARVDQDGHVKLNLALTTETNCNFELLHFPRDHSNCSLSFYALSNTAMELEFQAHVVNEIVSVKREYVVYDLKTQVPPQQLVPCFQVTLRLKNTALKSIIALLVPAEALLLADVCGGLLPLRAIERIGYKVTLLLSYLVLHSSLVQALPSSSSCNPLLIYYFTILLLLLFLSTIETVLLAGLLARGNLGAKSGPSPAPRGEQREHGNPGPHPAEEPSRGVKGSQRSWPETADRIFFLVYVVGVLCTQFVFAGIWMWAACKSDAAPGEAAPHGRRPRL
RUN DESCRIPTION: TEVC in oocytes, ZAC E89A mutant
MEASUREMENT CONDITIONS: agonist; n = 7
ATTRIBUTE MEASURED: pEC50
One number for each entry, as −log10 of the molar value.

Reported pEC50, molecule [Cl-].[Cl-].[Zn+2] : ____ 3.80

Data origin, for the record: paper PMC11359809
